# Tested on: Escherichia coli TOP10
# METHOD_SUMMARY: shrunken log2 fold change of peptide-encoding DNA abundance (4.5 h post-induction vs induction); higher = less antimicrobial activity (less host growth inhibition)
# DETAILS: time post-induction: 4.5 h; library: site-saturation at positions 5, 18, 19, 20
Classification field: enter true (1) for shrunken log2 fold change values not below -0.05, false (0) for values below it.

# input # check: shrunken log2 fold change of `RRIRIRPPRLPRPRPRPGQMPRP` is greater than or equal to -0.05
# output true (1)

# input # check: shrunken log2 fold change of `RRIRKRPPRLPRPRPRPMTYPRP` is greater than or equal to -0.05
# output false (0)

# input # check: shrunken log2 fold change of `RRIRIRPPRLPRPRPRPCPEPRP` is greater than or equal to -0.05
# output false (0)

# input # check: shrunken log2 fold change of `RRIRSRPPRLPRPRPRPKVIPRP` is greater than or equal to -0.05
# output true (1)

# input # check: shrunken log2 fold change of `RRIRHRPPRLPRPRPRPKIYPRP` is greater than or equal to -0.05
# output false (0)

# input # check: shrunken log2 fold change of `RRIRTRPPRLPRPRPRPVPQPRP` is greater than or equal to -0.05
# output true (1)

# input # check: shrunken log2 fold change of `RRIRMRPPRLPRPRPRPRPPPRP` is greater than or equal to -0.05
# output true (1)

# input # check: shrunken log2 fold change of `RRIRMRPPRLPRPRPRPTTFPRP` is greater than or equal to -0.05
# output true (1)

# input # check: shrunken log2 fold change of `RRIRDRPPRLPRPRPRPDYEPRP` is greater than or equal to -0.05
# output true (1)

# input # check: shrunken log2 fold change of `RRIRGRPPRLPRPRPRPCKNPRP` is greater than or equal to -0.05
# output true (1)

# input # check: shrunken log2 fold change of `RRIRVRPPRLPRPRPRPFLRPRP` is greater than or equal to -0.05
# output false (0)

# input # check: shrunken log2 fold change of `RRIRERPPRLPRPRPRPPWDPRP` is greater than or equal to -0.05
# output true (1)

# input # check: shrunken log2 fold change of `RRIRLRPPRLPRPRPRPQNYPRP` is greater than or equal to -0.05
# output false (0)

# input # check: shrunken log2 fold change of `RRIRPRPPRLPRPRPRPVTTPRP` is greater than or equal to -0.05
# output true (1)

# input # check: shrunken log2 fold change of `RRIRDRPPRLPRPRPRPIHEPRP` is greater than or equal to -0.05
# output false (0)

# input # check: shrunken log2 fold change of `RRIRMRPPRLPRPRPRPHAEPRP` is greater than or equal to -0.05
# output true (1)

# input # check: shrunken log2 fold change of `RRIRERPPRLPRPRPRPMVCPRP` is greater than or equal to -0.05
# output true (1)

# input # check: shrunken log2 fold change of `RRIRKRPPRLPRPRPRPGIYPRP` is greater than or equal to -0.05
# output true (1)

# input # check: shrunken log2 fold change of `RRIRNRPPRLPRPRPRPDREPRP` is greater than or equal to -0.05
# output false (0)

# input # check: shrunken log2 fold change of `RRIRRRPPRLPRPRPRPTDGPRP` is greater than or equal to -0.05
# output true (1)

# input # check: shrunken log2 fold change of `RRIRYRPPRLPRPRPRPPHLPRP` is greater than or equal to -0.05
# output false (0)

# input # check: shrunken log2 fold change of `RRIRGRPPRLPRPRPRPMCYPRP` is greater than or equal to -0.05
# output true (1)

# input # check: shrunken log2 fold change of `RRIRCRPPRLPRPRPRPPITPRP` is greater than or equal to -0.05
# output false (0)

# input # check: shrunken log2 fold change of `RRIRVRPPRLPRPRPRPMVQPRP` is greater than or equal to -0.05
# output true (1)

# input # check: shrunken log2 fold change of `RRIRSRPPRLPRPRPRPAGDPRP` is greater than or equal to -0.05
# output true (1)

# input # check: shrunken log2 fold change of `RRIRCRPPRLPRPRPRPWKLPRP` is greater than or equal to -0.05
# output false (0)

# input # check: shrunken log2 fold change of `RRIRFRPPRLPRPRPRPPYRPRP` is greater than or equal to -0.05
# output true (1)

# input # check: shrunken log2 fold change of `RRIRVRPPRLPRPRPRPQLHPRP` is greater than or equal to -0.05
# output false (0)

# input # check: shrunken log2 fold change of `RRIRRRPPRLPRPRPRPGTDPRP` is greater than or equal to -0.05
# output true (1)

# input # check: shrunken log2 fold change of `RRIRCRPPRLPRPRPRPNVAPRP` is greater than or equal to -0.05
# output true (1)

# input # check: shrunken log2 fold change of `RRIRARPPRLPRPRPRPIESPRP` is greater than or equal to -0.05
# output true (1)

* * *

Give shrunken log2 fold change for every item shown.
# Tested on: Escherichia coli TOP10
# METHOD_SUMMARY: shrunken log2 fold change of peptide-encoding DNA abundance (4.5 h post-induction vs induction); higher = less antimicrobial activity (less host growth inhibition)
# DETAILS: time post-induction: 4.5 h; library: site-saturation at positions 5, 18, 19, 20
Form: value (number only, do not type unit).

# input Value wanted: shrunken log2 fold change (Escherichia coli TOP10) of entry `RRIRARPPRLPRPRPRPCKKPRP`
# output -0.0968

# input Value wanted: shrunken log2 fold change (Escherichia coli TOP10) of entry `RRIRMRPPRLPRPRPRPITIPRP`
# output -0.315

# input Value wanted: shrunken log2 fold change (Escherichia coli TOP10) of entry `RRIRQRPPRLPRPRPRPCLRPRP`
# output -0.379

# input Value wanted: shrunken log2 fold change (Escherichia coli TOP10) of entry `RRIRDRPPRLPRPRPRPCKCPRP`
# output -0.147

# input Value wanted: shrunken log2 fold change (Escherichia coli TOP10) of entry `RRIRVRPPRLPRPRPRPQDAPRP`
# output -0.443

# input Value wanted: shrunken log2 fold change (Escherichia coli TOP10) of entry `RRIRYRPPRLPRPRPRPCCHPRP`
# output -1.36

# input Value wanted: shrunken log2 fold change (Escherichia coli TOP10) of entry `RRIRQRPPRLPRPRPRPDAAPRP`
# output 1.08

# input Value wanted: shrunken log2 fold change (Escherichia coli TOP10) of entry `RRIRQRPPRLPRPRPRPDCIPRP`
# output -0.0167

* * *

# System: Escherichia coli TOP10;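 also: peptides expressed intracellularly from a pBAD plasmid library in pooled LB shake-flask culture, induced with 0.3% L-arabinose, DNA abundance read by NGS, three biological replicates, DESeq2 with apeglm shrinkage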
# METHOD_SUMMARY: shrunken log2 fold change of peptide-encoding DNA abundance (4.5 h post-induction vs induction); higher = less antimicrobial activity (less host growth inhibition)
# DETAILS: time post-induction: 4.5 h; library: site-saturation at positions 5, 18, 19, 20
Give shrunken log2 fold change for every item shown.
Form: value (number only, do not type unit).

# input Value wanted: shrunken log2 fold change (Escherichia coli TOP10) of entry `RRIRERPPRLPRPRPRPPCVPRP`
# output -0.159

# input Value wanted: shrunken log2 fold change (Escherichia coli TOP10) of entry `RRIRCRPPRLPRPRPRPISNPRP`
# output -0.145

# input Value wanted: shrunken log2 fold change (Escherichia coli TOP10) of entry `RRIRSRPPRLPRPRPRPAEYPRP`
# output -0.0544

# input Value wanted: shrunken log2 fold change (Escherichia coli TOP10) of entry `RRIRYRPPRLPRPRPRPVMTPRP`
# output -0.09

# input Value wanted: shrunken log2 fold change (Escherichia coli TOP10) of entry `RRIRMRPPRLPRPRPRPDACPRP`
# output 1.97

# input Value wanted: shrunken log2 fold change (Escherichia coli TOP10) of entry `RRIRSRPPRLPRPRPRPCPIPRP`
# output -0.267

# input Value wanted: shrunken log2 fold change (Escherichia coli TOP10) of entry `RRIRDRPPRLPRPRPRPGCLPRP`
# output 0.589

# input Value wanted: shrunken log2 fold change (Escherichia coli TOP10) of entry `RRIRYRPPRLPRPRPRPTLVPRP`
# output -0.0641

# input Value wanted: shrunken log2 fold change (Escherichia coli TOP10) of entry `RRIRFRPPRLPRPRPRPERDPRP`
# output -0.0622

# input Value wanted: shrunken log2 fold change (Escherichia coli TOP10) of entry `RRIRTRPPRLPRPRPRPWIRPRP`
# output -0.0303

# input Value wanted: shrunken log2 fold change (Escherichia coli TOP10) of entry `RRIRWRPPRLPRPRPRPCMPPRP`
# output -0.425

# input Value wanted: shrunken log2 fold change (Escherichia coli TOP10) of entry `RRIRSRPPRLPRPRPRPVKYPRP`
# output -0.177

# input Value wanted: shrunken log2 fold change (Escherichia coli TOP10) of entry `RRIRVRPPRLPRPRPRPQMNPRP`
# output -0.0919

# input Value wanted: shrunken log2 fold change (Escherichia coli TOP10) of entry `RRIRDRPPRLPRPRPRPERTPRP`
# output 0.12

# input Value wanted: shrunken log2 fold change (Escherichia coli TOP10) of entry `RRIRHRPPRLPRPRPRPDWFPRP`
# output -0.00508
